Origin of the recorded values: paper PMC12207590

Give measured MATE2K ratio for each item. Keep answers brief.
molecular target: MATE2K (Homo sapiens, UniProt Q86VL8); experiment: Uptake ratio in MATE2K-overexpressing HEK293 cells vs empty vector (2.5 μM, 1 min, HPLC-MS/MS); format: cell-based; conditions: fold uptake over empty vector, 2.5 μM, 1 min
Sequence (Q86VL8 1-566 isoform Q86VL8-3): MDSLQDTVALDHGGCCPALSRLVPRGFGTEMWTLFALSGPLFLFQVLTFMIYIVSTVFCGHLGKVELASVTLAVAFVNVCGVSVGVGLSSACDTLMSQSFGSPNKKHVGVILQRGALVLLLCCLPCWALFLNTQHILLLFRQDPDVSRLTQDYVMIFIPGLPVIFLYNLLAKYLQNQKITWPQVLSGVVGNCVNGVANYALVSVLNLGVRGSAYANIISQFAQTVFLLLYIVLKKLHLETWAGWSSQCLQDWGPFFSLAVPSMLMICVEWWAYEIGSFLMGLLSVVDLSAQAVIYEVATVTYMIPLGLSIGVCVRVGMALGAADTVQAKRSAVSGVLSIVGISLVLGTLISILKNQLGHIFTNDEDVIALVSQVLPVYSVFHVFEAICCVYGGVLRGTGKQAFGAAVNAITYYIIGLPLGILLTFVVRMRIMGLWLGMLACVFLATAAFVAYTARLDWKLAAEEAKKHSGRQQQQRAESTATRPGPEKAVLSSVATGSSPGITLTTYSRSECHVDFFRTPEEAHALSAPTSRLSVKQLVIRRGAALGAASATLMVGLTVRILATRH
Just the number, please.

Req: For COc1ccccc1OCCNCC(O)COc1cccc2[nH]c3ccccc3c12 [Carvedilol (S), Carvedilol] , what is its reported MATE2K ratio?
Resp: 1.18

Req: // MATE2K ratio lookup, key: Cc1nccn1CC1CCc2c(c3ccccc3n2C)C1=O (stereo not shown)
Resp: 1.24

Req: Endpoint output: MATE2K ratio of C[C@H](NCCc1ccc(O)cc1)[C@H](O)c1ccc(O)cc1 (racemic) . Value?
Resp: 2.23

Req: Could you tell me which MATE2K ratio is on file for CCc1nn(CCCN2CCN(c3cccc(Cl)c3)CC2)c(=O)n1CCOc1ccccc1 ?
Resp: 1.24

Req: Entry Fc1ccc([C@@H]2CCNC[C@H]2COc2ccc3c(c2)OCO3)cc1 : reported MATE2K ratio = ?
Resp: 1.79

Req: Recorded MATE2K ratio of NCCCNCCCCNCCCN , please.
Resp: 1.25

Req: Give its MATE2K ratio value. Item: COCCOC(=O)C1=C(C)NC(C)=C(C(=O)OC(C)C)C1c1cccc([N+](=O)[O-])c1 (stereo not shown)
Resp: 1.20

Req: Fill in the blank: the reported MATE2K ratio of CCN1CCCC1CNC(=O)c1cc(S(=O)(=O)CC)c(N)cc1OC [Amisulpride (S), Amisulpride] is ____.
Resp: 7.93

Req: Could you tell me which MATE2K ratio is on file for NC(=O)c1cnccn1 [Pyrazinamide] ?
Resp: 1.05

Req: Item Cc1cccc(C(C)c2cnc[nH]2)c1C (stereo not shown) has what recorded MATE2K ratio?
Resp: 1.21

###

target: MATE1 (Homo sapiens, UniProt Q96FL8); test: Uptake ratio in MATE1-overexpressing HEK293 cells vs empty vector (2.5 μM, 1 min, HPLC-MS/MS); assay type: cell-based
Sequence (Q96FL8 whole entry): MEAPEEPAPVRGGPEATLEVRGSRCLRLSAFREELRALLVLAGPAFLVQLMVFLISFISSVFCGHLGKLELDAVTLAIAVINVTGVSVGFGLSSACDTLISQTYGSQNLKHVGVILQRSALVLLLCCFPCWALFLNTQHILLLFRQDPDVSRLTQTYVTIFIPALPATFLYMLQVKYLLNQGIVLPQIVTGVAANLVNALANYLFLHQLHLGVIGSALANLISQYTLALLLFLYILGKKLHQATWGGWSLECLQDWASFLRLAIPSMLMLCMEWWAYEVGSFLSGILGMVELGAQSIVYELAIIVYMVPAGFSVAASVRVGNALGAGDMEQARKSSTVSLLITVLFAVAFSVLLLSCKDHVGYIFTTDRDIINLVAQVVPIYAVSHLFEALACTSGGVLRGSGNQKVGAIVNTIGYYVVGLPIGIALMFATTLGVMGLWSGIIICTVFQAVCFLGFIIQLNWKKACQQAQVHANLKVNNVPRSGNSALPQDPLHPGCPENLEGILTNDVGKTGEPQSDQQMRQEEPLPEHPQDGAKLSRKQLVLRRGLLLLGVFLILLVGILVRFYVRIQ
reportedEndpoint: MATE1 ratio
Output spec: single numeric token, no unit.

Req: Give the reported MATE1 ratio for CNCC/C=C1/c2ccccc2CC(O)c2ccccc21 (stereo not drawn) (system: MATE1 (Homo sapiens, UniProt Q96FL8)).
Resp: 1.17

Req: Form field - read-out: MATE1 ratio; system: MATE1 (Homo sapiens, UniProt Q96FL8); submitted item: CNCC1CCCCC1(O)c1cccc(OC)c1 (stereo not drawn)
Resp: 1.12

Req: Request - read-out MATE1 ratio | tested on MATE1 (Homo sapiens, UniProt Q96FL8) | molecule O=P1(NCCCl)OCCCN1CCCl (stereo not drawn) [Ifosfamide]
Resp: 1.24

Req: GET /values?readout=MATE1 ratio&system=MATE1 (Homo sapiens, UniProt Q96FL8)&item= C=C[C@H]1CN2CC[C@H]1C[C@H]2[C@H](O)c1ccnc2ccccc12
Resp: 1.16

Req: // fetch MATE1 (Homo sapiens, UniProt Q96FL8) MATE1 ratio for N=C(Nc1ccccc1)Nc1ccccc1
Resp: 1.53

Req: Please state recorded MATE1 ratio (tested on MATE1 (Homo sapiens, UniProt Q96FL8)) of CCC1(c2cccc(O)c2)CCCCN(C)C1 (stereo not drawn)
Resp: 1.21

Req: Field: MATE1 ratio (MATE1 (Homo sapiens, UniProt Q96FL8)). Entry: COc1cc2c(cc1OC)[C@@]13CCN4CC5=CCO[C@H]6CC(=O)N2[C@H]1[C@H]6[C@H]5C[C@H]43
Resp: 1.13

Req: Return MATE1 ratio measured with MATE1 (Homo sapiens, UniProt Q96FL8) given this molecule: CCCC[N+]1(C)[C@@H]2C[C@@H](OC(=O)[C@H](CO)c3ccccc3)C[C@H]1[C@@H]1O[C@@H]12 (stereo partly drawn)
Resp: 23.84

Req: MATE1 (Homo sapiens, UniProt Q96FL8) / MATE1 ratio / CN(C)c1ccc2nc3ccc(=[N+](C)C)cc-3sc2c1 : value?
Resp: 2.36
